Papp values by entry
assay: in vitro; conditions: PAMPA, PAMPA-BBB Pe(10^-6 cm/sec), Table S3: compounds exhibiting low PAMPA-BBB permeability

{"compound": "O=C(/C=C/c1ccc(O)c(O)c1)O[C@H](Cc1ccc(O)c(O)c1)C(=O)O", "result": "3.4 ×10⁻⁶ cm/s"}
{"compound": "CC(C)=CCNc1ncnc2c1ncn2[C@@H]1O[C@H](CO)[C@@H](O)[C@H]1O", "result": "< 1 ×10⁻⁶ cm/s"}
{"compound": "COc1c(O)cc2c(c1O)[C@@H]1O[C@H](CO)[C@@H](O)[C@H](O)[C@H]1OC2=O", "result": "< 1 ×10⁻⁶ cm/s"}

(Q) Report measured Papp; entry is N[C@@H](Cn1ccc(=O)[nH]c1=O)C(=O)O
(A) < 1 ×10⁻⁶ cm/s

(Q) Report measured Papp; entry is O=c1c2cc(O)c(O)cc2oc2cc(O)c([C@@H]3O[C@H](CO)[C@@H](O)[C@H](O)[C@H]3O)c(O)c12
(A) < 1 ×10⁻⁶ cm/s

(Q) Report measured Papp; entry is O=C(O)c1cc(O)c2c(c1)[C@@H]([C@H]1c3cc(C(=O)O)cc(O)c3C(=O)c3c(O[C@@H]4O[C@H](CO)[C@@H](O)[C@H](O)[C@H]4O)cccc31)c1cccc(O[C@@H]3O[C@H](CO)[C@@H](O)[C@H](O)[C@H]3O)c1C2=O [SENNOSIDE B]
(A) 3 ×10⁻⁶ cm/s

(Q) Report measured Papp; entry is COc1cc(C)c2c(c1C=O)Oc1c(c(C)c(O)c3c1C(O)OC3=O)OC2=O (stereo not shown)
(A) < 1 ×10⁻⁶ cm/s

* * *

conditions: Table S2: compounds exhibiting moderate to high PAMPA-BBB permeability
quantity.kind: PAMPA-BBB Pe

Examples with answers:
{"compound": "O=c1oc2c(O)c(O)cc3c(=O)oc4c(O)c(O)cc1c4c23", "PAMPA-BBB Pe": "120 10^-6 cm/sec"}
{"compound": "OCC=Cc1ccccc1", "PAMPA-BBB Pe": "97 10^-6 cm/sec"}
{"compound": "COc1cc(/C=C/C(=O)c2ccc(O)cc2O)ccc1O", "PAMPA-BBB Pe": "188 10^-6 cm/sec"}
{"compound": "CO[C@H]1C=C2CCN(C)[C@H]2C2c3cc4c(cc3C(=O)O[C@@H]21)OCO4 (some centres unmarked)", "PAMPA-BBB Pe": "19 10^-6 cm/sec"}

(Q) Report measured PAMPA-BBB Pe; entry is COc1cc2c(cc1-c1coc3c4c(c(OC)cc3c1=O)OC(C)(C)C=C4)OCO2
(A) 146 10^-6 cm/sec

(Q) Report measured PAMPA-BBB Pe; entry is COc1ccc2c(c1OC)C(=O)O[C@@H]2[C@H]1c2cc3c(cc2CCN1C)OCO3 [Hydrastine]
(A) 57 10^-6 cm/sec

(Q) Report measured PAMPA-BBB Pe; entry is COc1ccc(C(=O)OC2C[C@H]3CC[C@H](C2)N3C)cc1OC (some centres unmarked)
(A) 16 10^-6 cm/sec

* * *

tested on: GFP-labeled iPSC-derived human cortical glutamatergic neurons; assay: cells; type: cell-based; conditions: Homo sapiens, Neuron; rounded values; read-out: AC50 (neurite outgrowth inhibition)
quantity.kind: AC50 (nM)
Value expressed in nM; do not type the unit.

(Q) Report measured AC50; entry is C/C=C(\C)C(=O)N[C@@H](c1ccccc1)[C@@H](O)C(=O)O[C@H]1C[C@@]2(O)[C@@H](OC(=O)c3ccccc3)[C@@H]3[C@]4(OC(C)=O)CO[C@@H]4C[C@H](O)[C@@]3(C)C(=O)[C@H](OC(C)=O)C(=C1C)C2(C)C
(A) 700

(Q) Report measured AC50; entry is COc1cc(-c2cc(=O)c3c(O)cc(O)cc3o2)ccc1O
(A) 2200

(Q) Report measured AC50; entry is O=c1oc2c(O)c(O)cc3c(=O)oc4c(O)c(O)cc1c4c23
(A) 3100

* * *

test: in vitro; settings: PAMPA, PAMPA-BBB Pe(10^-6 cm/sec), Table S3: compounds exhibiting low PAMPA-BBB permeability
quantity.kind: Papp (×10⁻⁶ cm/s)
Value expressed in ×10⁻⁶ cm/s; do not type the unit.

{"mol.smiles": "C[C@@H]1O[C@@H](O[C@@H]2C=C3CC[C@@H]4[C@H](CC[C@]5(C)[C@@H](c6ccc(=O)oc6)CC[C@]45O)[C@@]3(C)CC2)[C@H](O)[C@H](O)[C@H]1O", "recorded.number": 1.5}

# ---- query molecule ----
(Q) Report measured Papp; entry is CC(/C=C/C=C(\C)C(=O)O[C@@H]1O[C@H](CO[C@@H]2O[C@H](CO)[C@@H](O)[C@H](O)[C@H]2O)[C@@H](O)[C@H](O)[C@H]1O)=C\C=C\C=C(C)\C=C\C=C(/C)C(=O)O[C@@H]1O[C@H](CO[C@@H]2O[C@H](CO)[C@@H](O)[C@H](O)[C@H]2O)[C@@H](O)[C@H](O)[C@H]1O
(A) 6.1

* * *

assay: in vitro; settings: PAMPA, PAMPA-BBB Pe, Table S2: compounds exhibiting moderate to high PAMPA-BBB permeability
quantity.kind: Papp (×10⁻⁶ cm/s)
Value expressed in ×10⁻⁶ cm/s; do not type the unit.

(Q) Report measured Papp; entry is OCc1c[nH]c2ccccc12
(A) 94

(Q) Report measured Papp; entry is CCOC(=O)c1c(C)cc(O)cc1O [ETHYL ORSELLINATE]
(A) 137

(Q) Report measured Papp; entry is CCCCCc1cc(O)c2c(c1)OC(C)(C)c1ccc(C)cc1-2
(A) 21

* * *

assay: in vitro; settings: PAMPA, PAMPA-BBB Pe(10^-6 cm/sec), Table S3: compounds exhibiting low PAMPA-BBB permeability
Structures can show the parent of a compound that is named as a salt.
Papp values by entry

Examples with answers:
{"molecule": "Nc1ncnc2c1ncn2[C@@H]1O[C@H](CO)C[C@H]1O [CORDYCEPIN]", "result": "< 1 ×10⁻⁶ cm/s"}
{"molecule": "O=C(/C=C/c1ccc(O)c(O)c1)O[C@@H]1C[C@](O)(C(=O)O)C[C@@H](O)[C@H]1O", "result": "< 1 ×10⁻⁶ cm/s"}
{"molecule": "COc1cc(-c2[o+]c3cc(O)cc(O)c3cc2O)cc(OC)c1O", "result": "1 ×10⁻⁶ cm/s"}
{"molecule": "CNCC(O)c1ccc(O)c(OC)c1 (stereo not drawn) [METANEPHRINE HYDROCHLORIDE]", "result": "< 1 ×10⁻⁶ cm/s"}
{"molecule": "CSC[C@H]1O[C@@H](n2cnc3c(N)ncnc32)[C@H](O)[C@@H]1O", "result": "< 1 ×10⁻⁶ cm/s"}

(Q) Report measured Papp; entry is O=c1cc(-c2ccc(O)c(O)c2)oc2cc(O)cc(O)c12
(A) 2.2 ×10⁻⁶ cm/s

(Q) Report measured Papp; entry is Nc1nc2c(ncn2[C@@H]2O[C@H](CO)[C@@H](O)[C@@H]2O)c(=O)[nH]1
(A) < 1 ×10⁻⁶ cm/s

(Q) Report measured Papp; entry is COc1c2c(cc3c1OCO3)CC[N+](C)=C2
(A) < 1 ×10⁻⁶ cm/s

(Q) Report measured Papp; entry is C=CC(C)=CCC=C(C)C [CIS BETA OCIMENE]
(A) 3.9 ×10⁻⁶ cm/s

(Q) Report measured Papp; entry is C=C1CC[C@H](O)C/C1=C/C=C1\CCC[C@]2(C)[C@@H]([C@H](C)/C=C/[C@H](C)C(C)C)CC[C@@H]12
(A) < 1 ×10⁻⁶ cm/s

* * *

system: GFP-labeled iPSC-derived human cortical glutamatergic neurons; experiment: cells; conditions: Neuron, 48 h, read-out: Viability AC50 (48hr)
Structures can show the parent of a compound that is named as a salt.
quantity.kind: AC50 (µM)
Value expressed in µM; do not type the unit.

{"compound": "COc1ccc(/C=C/C(=O)c2cc(O)ccc2O)cc1", "recorded.number": 19.8}
{"compound": "CC[C@H](C)[C@H]1O[C@]2(C=C[C@@H]1C)C[C@@H]1C[C@@H](C/C=C(\\C)[C@@H](O[C@H]3C[C@H](OC)[C@@H](O[C@H]4C[C@H](OC)[C@@H](O)[C@H](C)O4)[C@H](C)O3)[C@@H](C)/C=C/C=C3\\CO[C@@H]4[C@H](O)C(C)=C[C@@H](C(=O)O1)[C@]34O)O2", "recorded.number": 17.2}
{"compound": "CCC(=O)CCCCC[C@@H]1NC(=O)[C@H]2CCCCN2C(=O)[C@H]([C@@H](C)CC)NC(=O)[C@H](Cc2cn(OC)c3ccccc23)NC1=O", "recorded.number": 2.17}
{"compound": "CCCC[C@@H](C)/C=C(C)/C=C(\\C)C(=O)NC1=C[C@@](O)(/C=C/C=C/C=C/C(=O)NC2=C(O)CCC2=O)[C@@H]2O[C@@H]2C1=O", "recorded.number": 8.33}

(Q) Report measured AC50; entry is CN1[C@@H](CC(=O)c2ccccc2)CCC[C@H]1C[C@H](O)c1ccccc1 [Lobeline hydrochloride]
(A) 22.5
